# target_system: SARS-CoV-2 3CL-protease (Severe acute respiratory syndrome coronavirus 2, UniProt P0DTD1)
# procedure_summary: SARS-CoV-2 3C-like (3CL) protease fluorescence assay (FRET)
# Assay type: biochemical
# assay_conditions: read-out: FRET IC50
pIC50: −log10 of the molar value.
Recorded pIC50 values for a group of compounds are listed next.

Input CC(C)C[C@@H](C(=O)N1C[C@]2(C[C@H]1C#N)C(=O)Nc1ccccc12)N(C)C(=O)[C@H]1CCN(C(=O)C(F)(F)F)C1 . Output pIC50: > 7.00

Input C[C@H](OC(=O)N[C@@H](CC(C)(C)C)C(=O)N1C[C@]2(C[C@H]1C#N)C(=O)Nc1ccc(Cl)cc12)c1ccc(F)cc1 . Output pIC50: > 7.00

Input COc1cc(C(=O)N(C)C(CC(C)C)C(=O)N2CC3(CC2C#N)C(=O)Nc2ccccc23)cc2cn(C3CC3)nc12 (stereo not drawn) . Output pIC50: > 7.00

The reported numbers originate from patent EP4001279A1.
